# Tested on: P-Akt (S473)
# ASSAY PROTOCOL: Cell based AlphaLISA assay, inhibition of P-Akt (S473) in MDA-MB-468 cells (mTORC2 substrate)
# RUN CONDITIONS: Homo sapiens, 4 h, AlphaLisa, two to four hours at 37° C., read-out: pIC50 for Inhibition of mTORC1 and mTORC2 Substrate Phosphorylation p-AKT1/2/3-(S473) (converted)
IC50 by entry:
METRIC NAME: IC50

chemical_string=CO[C@H]1C[C@@H]2CC[C@@H](C)[C@@](O)(O2)C(=O)C(=O)N2CCCC[C@H]2C(=O)O[C@H]([C@H](C)C[C@@H]2CC[C@@H](OC(=O)NCc3cnc(N4CCN(c5ncc(C(=O)N(C)CCOCCOCCOCCOCCC(=O)N6CCc7cc(Cn8nc(-c9ccc%10oc(N)nc%10c9)c9c(N)ncnc98)ccc7C6)c(N)n5)CC4)nc3)[C@H](OC)C2)C[C@@H](OC)[C@H](C)/C=C(\C)[C@@H](O)[C@@H](OC)C(=O)[C@H](C)C[C@H](C)/C=C/C=C/C=C/1C metric_name=IC50 result_value="3.16 to 31.6 nM"
chemical_string=CO[C@H]1C[C@@H]2CC[C@@H](C)[C@@](O)(O2)C(=O)C(=O)N2CCCC[C@H]2C(=O)O[C@H]([C@H](C)C[C@@H]2CC[C@@H](OC(=O)NCc3cnc(N4CCN(C(=O)CN(C)CC(=O)NCCOCCOCCC(=O)N5CCc6cc(Cn7nc(-c8ccc9oc(N)nc9c8)c8c(N)ncnc87)ccc6C5)CC4)nc3)[C@H](OC)C2)C[C@@H](OC)[C@H](C)/C=C(\C)[C@@H](O)[C@@H](OC)C(=O)[C@H](C)C[C@H](C)/C=C/C=C/C=C/1C metric_name=IC50 result_value="3.16 to 31.6 nM"
chemical_string=CO[C@H]1C[C@@H]2CC[C@@H](C)[C@@](O)(O2)C(=O)C(=O)N2CCCC[C@H]2C(=O)O[C@H]([C@H](C)C[C@@H]2CC[C@@H](OC(=O)NC3CCN(CC(=O)NCCOCCOCCOCCOCCOCCOCCC(=O)N4CCc5cc(Cn6nc(-c7ccc8oc(N)nc8c7)c7c(N)ncnc76)ccc5C4)CC3)[C@H](OC)C2)C[C@@H](OC)[C@H](C)/C=C(\C)[C@@H](O)[C@@H](OC)C(=O)[C@H](C)C[C@H](C)/C=C/C=C/C=C/1C metric_name=IC50 result_value="> 1000 nM"
chemical_string=CO[C@H]1C[C@@H]2CC[C@@H](C)[C@@](O)(O2)C(=O)C(=O)N2CCCC[C@H]2C(=O)O[C@H]([C@H](C)C[C@@H]2CC[C@@H](OC(=S)NCCOCCOCCOCCOCCOCCOCCOCCOCCC(=O)N3CCc4cc(Cn5nc(-c6ccc7oc(N)nc7c6)c6c(N)ncnc65)ccc4C3)[C@H](OC)C2)C[C@@H](O)[C@H](C)/C=C(\C)[C@@H](O)[C@@H](OC)C(=O)[C@H](C)C[C@H](C)/C=C/C=C/C=C/1C metric_name=IC50 result_value="> 1000 nM"
chemical_string=CO[C@H]1C[C@@H]2CC[C@@H](C)[C@@](O)(O2)C(=O)C(=O)N2CCCC[C@H]2C(=O)O[C@H]([C@H](C)C[C@@H]2CC[C@@H](OC(=O)NCc3cnc(N4CCN(C(=O)CN(C)CC(=O)NCCOCCOCCC(=O)N5CCc6cc(Cn7nc(-c8ccc9oc(N)nc9c8)c8c(N)ncnc87)ccc6C5)CC4)nc3)[C@H](OC)C2)CC(=O)[C@H](C)/C=C(\C)[C@@H](O)[C@@H](OC)C(=O)[C@H](C)C[C@H](C)/C=C/C=C/C=C/1C metric_name=IC50 result_value="3.16 to 31.6 nM"
chemical_string=CO[C@H]1C[C@@H]2CC[C@@H](C)[C@@](O)(O2)C(=O)C(=O)N2CCCC[C@H]2C(=O)O[C@H]([C@H](C)C[C@@H]2CC[C@@H](OC(=O)NCc3cnc(N4CCN(C(=O)CCOCCOCCN5CCN(c6ncc(C(=O)N7CCc8cc(Cn9nc(-c%10ccc%11[nH]ccc%11c%10)c%10c(N)ncnc%109)ccc8C7)cn6)CC5)CC4)nc3)[C@H](OC)C2)CC(=O)[C@H](C)/C=C(\C)[C@@H](O)[C@@H](OC)C(=O)[C@H](C)C[C@H](C)/C=C/C=C/C=C/1C metric_name=IC50 result_value="> 1000 nM"
